- SYSTEM: human Kv1.3 (Homo sapiens (Human))
- Sequence (P22001 whole entry): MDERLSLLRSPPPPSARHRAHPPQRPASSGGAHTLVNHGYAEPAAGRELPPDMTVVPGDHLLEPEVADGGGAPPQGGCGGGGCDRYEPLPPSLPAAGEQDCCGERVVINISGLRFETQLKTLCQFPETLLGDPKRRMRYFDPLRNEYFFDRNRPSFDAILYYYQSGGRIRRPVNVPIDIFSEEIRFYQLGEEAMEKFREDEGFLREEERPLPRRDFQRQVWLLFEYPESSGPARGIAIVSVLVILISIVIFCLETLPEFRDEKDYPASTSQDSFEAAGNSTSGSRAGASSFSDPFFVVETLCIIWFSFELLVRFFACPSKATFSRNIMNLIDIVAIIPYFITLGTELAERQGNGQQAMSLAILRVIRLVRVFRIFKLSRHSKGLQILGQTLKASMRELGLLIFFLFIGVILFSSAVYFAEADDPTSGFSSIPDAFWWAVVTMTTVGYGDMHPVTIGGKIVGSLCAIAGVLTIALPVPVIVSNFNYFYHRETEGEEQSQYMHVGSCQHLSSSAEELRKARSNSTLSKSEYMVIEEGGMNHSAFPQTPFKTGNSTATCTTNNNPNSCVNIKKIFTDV
- PROTOCOL_DESCRIPTION: Kv1.3 potency evaluation, automated patch clamp electrophysiology (QPatch HT) in CHO-Kv1.3 cells
- CONDITION_CONTEXT: whole-cell QPatch HT, % inhibition of charge, step to +30 mV, four concentrations, N≥3 cells, read-out: hKv1.3 IC50
- Procedure: Biological Assays Kv1.3 Potency Evaluation Electrophysiology Recordings […] Currents were elicited using a single step voltage protocol. […] For each sweep of the voltage protocol membrane current and the passive properties of the individual cells were recorded by QPatch assay software (version 5.2). Cursors were placed to calculate the charge (integral of the current recorded during cursor interval) between 2-490 ms (0.4-99%) of the 500 ms step to +30 mV. […]
// map IC50 onto a label; ranges category 1: < 70 nM; category 2: ≥ 70 nM and < 100 nM; category 3: ≥ 100 nM

Examples from the recorded data:
C[C@]1(C(=O)N2CC3CC3C2)CN=C(C23CC(N(Cc4ccc(C(F)(F)F)cc4)S(=O)(=O)c4ccc(F)cc4)(C2)C3)N1 (mixture of isomers) [Example 234]    category 3
CC(C)CS(=O)(=O)N(Cc1ccc(Cl)cc1)C12CC(C3=NC(C)(C)[C@H](C(=O)NCCC(F)(F)F)N3)(C1)C2 (mixture of isomers) [Example 54]    category 1
CC(F)(F)CCS(=O)(=O)N(Cc1ccc(Cl)c(Cl)c1)C12CC(C3=NC(C)(C)[C@H](C(=O)NCC(F)(F)C(F)(F)F)N3)(C1)C2 (mixture of isomers) [Example 156]    category 2
CC1(C)N=C(C23CC(N(Cc4ccc(Cl)cc4)S(=O)(=O)c4ccn(C5CC5)n4)(C2)C3)N[C@H]1C(=O)NCCC(F)(F)F (mixture of isomers) [Example 90]    category 1
CC1(C)N=C(C23CC(N(Cc4ccc(Cl)c(F)c4)S(=O)(=O)c4ccccc4)(C2)C3)N[C@H]1C(=O)N1CC2CCC(C1)C2(F)F (mixture of isomers) [Example 88]    category 1
CN(C(=O)[C@@H]1NC(C23CC(N(Cc4ccc(Cl)c(Cl)c4)S(=O)(=O)c4ccccc4)(C2)C3)=NC1(C)C)C1CC(C(F)F)C1 (mixture of isomers) [Example 120]    category 2

Q: Textbook exercise: identify the category of the compound given here, C[C@]1(C(=O)N2CC3(CCC3)C2)CN=C(C23CC(N(Cc4ccc(C(F)(F)F)cc4)S(=O)(=O)c4ccc(F)cc4)(C2)C3)N1 (mixture of isomers) [Example 253] , according to its measured value.
A: category 3

Q: Textbook exercise: identify the category of the compound given here, CC(F)(F)CCS(=O)(=O)N(Cc1ccc(Cl)c(Cl)c1)C12CC(C3=NC(C)(C)[C@H](C(=O)NCCC(F)(F)F)N3)(C1)C2 (mixture of isomers) [Example 150] , according to its measured value.
A: category 2

Q: Textbook exercise: identify the category of the compound given here, CC(C)S(=O)(=O)N(Cc1ccc(Cl)cc1)C12CC(C3=NC(C)(C)[C@H](C(=O)NCCC(F)(F)F)N3)(C1)C2 (mixture of isomers) [Example 252] , according to its measured value.
A: category 3

Source of measurements: patent US12128028B2
